Catalogue of compounds with associated half-life
assay_explanation: in vivo
details: rat, plasma, iv
Write it as a number; the unit min goes unstated.

Completed entries (count: 2):
compound	half-life (min)
COc1cncc(CN(C)C(=O)NC(C(=O)N[C@@H](Cc2ccccc2)[C@@H](O)C[C@H](Cc2ccccc2)NC(=O)OCc2cccnc2)C(C)C)c1 (stereo partly drawn)	10.2
Cc1ccc(CN(C)C(=O)NC(C(=O)N[C@@H](Cc2ccccc2)[C@@H](O)C[C@H](Cc2ccccc2)NC(=O)OCc2cccnc2)C(C)C)cn1 (stereo partly drawn)	26.4

Could you now consider this next compound?
Ask: What does the record list as half-life for CC(NC(=O)N(Cc1csc(C(C)C)n1)C1CC1)C(=O)N[C@@H](Cc1ccccc1)C[C@H](O)[C@H](Cc1ccccc1)NC(=O)OCc1cncs1 (stereo partly drawn) ?
Reply: 36.6

----------
assay_explanation: in vivo
details: rat, plasma, po
Reported values of Tmax for individual entries
Value expressed in min; do not type the unit.

compound	unit	Tmax
CC(C)c1nc(CN(C)C(=O)NC(C(=O)N[C@@H](Cc2ccccc2)C[C@H](O)[C@H](Cc2ccccc2)NC(=O)OCc2cccnc2)C(C)C)co1 (stereo partly drawn)	min	15
CC(C)c1ncc(COC(=O)NC(C(=O)N[C@@H](Cc2ccccc2)C[C@H](O)[C@H](Cc2ccccc2)NC(=O)OCc2cccnc2)C(C)C)s1 (stereo partly drawn)	min	6
CC(C)C(NC(=O)N(C)Cc1csc(C2CC2)n1)C(=O)N[C@@H](Cc1ccccc1)[C@@H](O)C[C@H](Cc1ccccc1)NC(=O)OCc1cncs1 (stereo partly drawn)	min	138
CC(C)c1nc(CN(C(=O)NCCC(=O)N[C@@H](Cc2ccccc2)[C@@H](O)C[C@H](Cc2ccccc2)NC(=O)OCc2cncs2)C2CC2)cs1	min	16.8
Cc1cccc(COC(=O)NC(C(=O)N[C@@H](Cc2ccccc2)[C@@H](O)C[C@H](Cc2ccccc2)NC(=O)OCc2cccnc2)C(C)C)n1 (stereo partly drawn)	min	19.8
Cc1cncc(COC(=O)NC(C(=O)N[C@@H](Cc2ccccc2)C[C@H](O)[C@H](Cc2ccccc2)NC(=O)OCc2cccnc2)C(C)C)n1 (stereo partly drawn)	min	6

Ask: Can you share its Tmax? I mean this compound: COc1ccc(CN(C)C(=O)NC(C(=O)N[C@@H](Cc2ccccc2)[C@@H](O)C[C@H](Cc2ccccc2)NC(=O)OCc2cccnc2)C(C)C)cn1 (stereo partly drawn)
Reply: 6

Ask: Try CC(C)C(NC(=O)OCc1cncc(N)c1)C(=O)N[C@@H](Cc1ccccc1)[C@@H](O)C[C@H](Cc1ccccc1)NC(=O)OCc1cccnc1 (stereo partly drawn) next.
Reply: 6

----------
assay_explanation: Oral bioavailability in rat
Type: ADME, organism-based
details: in vivo
Answer NOT MET if bioavailability is under 3%, and MET if it is 3% or more.

# count of solved cases: 5
compound	group
CC(C)C(NC(=O)OCc1cncc(N)c1)C(=O)N[C@@H](Cc1ccccc1)[C@@H](O)C[C@H](Cc1ccccc1)NC(=O)OCc1cccnc1 (stereo partly specified)	NOT MET
Cc1cnc(COC(=O)NC(C(=O)N[C@@H](Cc2ccccc2)[C@@H](O)C[C@H](Cc2ccccc2)NC(=O)OCc2cccnc2)C(C)C)cn1 (stereo partly specified)	NOT MET
CC(NC(=O)N(C)Cc1csc(C(C)C)n1)C(=O)N[C@@H](Cc1ccccc1)C[C@H](O)[C@H](Cc1ccccc1)NC(=O)OCc1cncs1 (stereo partly specified)	MET
CC(C)c1nc(CN(C)C(=O)NC(C(=O)N[C@@H](Cc2ccccc2)C[C@H](O)[C@H](Cc2ccccc2)NC(=O)OCc2cccnc2)C(C)C)co1 (stereo partly specified)	MET
CC(C)c1nc(CN(C)C(=O)NC(C(=O)N[C@@H](Cc2ccccc2)[C@@H](O)C[C@H](Cc2ccccc2)NC(=O)OCc2cccnc2)C(C)C)co1 (stereo partly specified)	MET

Turning to the following compound.
Ask: Does the compound Cc1cccc(COC(=O)NC(C(=O)N[C@@H](Cc2ccccc2)[C@@H](O)C[C@H](Cc2ccccc2)NC(=O)OCc2cccnc2)C(C)C)n1 (stereo partly specified) have recorded bioavailability that is 3% or more?
Reply: MET

Provenance of the data: ChEMBL document CHEMBL1131475
